Where do the numbers come from? From paper PMC10429771.

Listing of recorded viability at 50 µM by entry.
Assay: Cell viability of L929 cells after azide-modified sugars (MTT)
Type: cell-based
Conditions: mouse, L929 fibroblast cells, 50 μM sugar, no change compared to control
Expressed in %, but write only the number.

Recorded viability at 50 µM, per entry:
CC(=O)OC[C@H]1OC(OC(C)=O)[C@@H](NC(=O)CN=[N+]=[N-])[C@@H](OC(C)=O)[C@@H]1OC(C)=O (stereo partly drawn) [Ac4ManNAz, Tetra-O-acetyl azidomannosamine, reference compound]: 97.5
CC(=O)N[C@H]1[C@H]([C@H](O)[C@H](O)CN=[N+]=[N-])OC(O)(C(=O)O)C[C@@H]1O (stereo in doubt) [Compound 4]: 92.4

Lab note: next molecule to report on.
Ask | I'd like to know its viability at 50 µM. The molecule in question is CC(=O)N[C@H]1[C@H]([C@H](OC(C)=O)[C@@H](CN=[N+]=[N-])OC(C)=O)O[C@@](OC(C)=O)(C(=O)O)C[C@@H]1OC(C)=O [Compound 5]
Reply | 122
